target: Histamine H3 receptor (Rattus norvegicus)
Sequence (Q9QYN8 whole entry): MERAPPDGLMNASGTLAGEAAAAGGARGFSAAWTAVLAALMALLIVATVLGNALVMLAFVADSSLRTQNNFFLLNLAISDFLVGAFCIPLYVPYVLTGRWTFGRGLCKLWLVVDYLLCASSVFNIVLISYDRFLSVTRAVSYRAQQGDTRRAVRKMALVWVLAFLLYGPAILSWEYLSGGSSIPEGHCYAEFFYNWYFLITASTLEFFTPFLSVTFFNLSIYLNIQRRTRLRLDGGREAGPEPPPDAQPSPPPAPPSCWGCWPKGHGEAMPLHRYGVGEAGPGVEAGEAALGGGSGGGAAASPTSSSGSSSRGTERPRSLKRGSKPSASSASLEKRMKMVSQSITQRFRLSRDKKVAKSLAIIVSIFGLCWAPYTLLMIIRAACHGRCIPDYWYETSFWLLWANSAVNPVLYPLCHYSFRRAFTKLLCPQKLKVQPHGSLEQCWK
measure: pKi
Formally, pKi is defined as -log10 of the concentration c, with c in mol/L.

Known pKi results, listed for orientation:
# smiles_str, measure, value_measured
data = [
    ("CC(C)S(=O)(=O)c1ccc(-c2ccc(CCN3CCC[C@H]3C)cc2)cc1", "pKi", 8.58),
    ("CCS(=O)(=O)c1ccc(-c2ccc(CCN3CCC[C@H]3C)cc2)cc1", "pKi", 9.05),
]

Note: attention shifts to another entry.
Endpoint output: pKi of COCCCS(=O)(=O)c1ccc(-c2ccc(CCN3CCC[C@H]3C)cc2)cc1 . Value?
9.15

###

assay: Half life in Sprague-Dawley rat at 3 mg/kg, iv by LC-MS/MS analysis; type: ADME, organism-based; design: dose 3 mg/kg, route intravenous; details: in vivo
measure: half-life (h)
Just the number in h, nothing appended.

Some entries whose results are on file:
# smiles_str, endpoint_unit, half-life
measured = [
    ("CCS(=O)(=O)c1ccc(-c2ccc(CCN3CCC[C@H]3C)cc2)cc1", "h", 1.4),
    ("CCCS(=O)(=O)c1ccc(-c2ccc(CCN3CCC[C@H]3C)cc2)cc1", "h", 0.3),
]

Attention now turns to another entry.
Recorded half-life of COCCCS(=O)(=O)c1ccc(-c2ccc(CCN3CCC[C@H]3C)cc2)cc1 , please.
1.9

###

experiment: Oral bioavailability in Sprague-Dawley rat at 1 mg/kg by LC-MS/MS analysis; assay type: ADME, organism-based; details: in vivo
measure: bioavailability (%)
Provide the reading as a plain figure in %.

Give its bioavailability value. Item: C[C@@H]1CCCN1CCc1ccc(-c2ccc(S(=O)(=O)CCO)cc2)cc1
53.6

###

assay: Tmax in Sprague-Dawley rat at 3 mg/kg, po and iv by LC-MS/MS analysis; assay type: ADME, organism-based; parameters: dose 3 mg/kg, route oral; conditions: in vivo
measure: Tmax (min)
A number alone suffices; assume min.

In the examples that follow, each entry is paired with its recorded Tmax.
# smiles_str, endpoint_unit, value_measured
records = [
    ("COCCCS(=O)(=O)c1ccc(-c2ccc(CCN3CCC[C@H]3C)cc2)cc1", "min", 30),
    ("CCCS(=O)(=O)c1ccc(-c2ccc(CCN3CCC[C@H]3C)cc2)cc1", "min", 6),
]

Quick one: Tmax for CCS(=O)(=O)c1ccc(-c2ccc(CCN3CCC[C@H]3C)cc2)cc1 ?
18

###

experiment: Cmax in monkey at 3 mg/kg, po by LC-MS/MS analysis; type: ADME, organism-based, Macaca mulatta; set-up: dose 3 mg/kg, route oral; conditions: rhesus monkey, in vivo
measure: Cmax (ng/mL)
API: value field is a number in ng/mL; no unit string.

Please look up its Cmax: COCCCS(=O)(=O)c1ccc(-c2ccc(CCN3CCC[C@H]3C)cc2)cc1
550

###

assay: Oral bioavailability in mouse at 3 mg/kg by LC-MS/MS analysis; assay type: ADME, organism-based; details: in vivo
measure: bioavailability (%)
Number in %, nothing else.

# get_value(readout='bioavailability', item= COCCCS(=O)(=O)c1ccc(-c2ccc(CCN3CCC[C@H]3C)cc2)cc1 )
35.4

###

test: Solubility of the compound in water; format: physicochemical
Each record here notes measured solubility.

# smiles_str, solubility
rows = [
    ("COCCS(=O)(=O)c1ccc(-c2ccc(CCN3CCC[C@H]3C)cc2)cc1.Cl", "> 30 mg/mL"),
]

Please report the recorded solubility for COCCCS(=O)(=O)c1ccc(-c2ccc(CCN3CCC[C@H]3C)cc2)cc1.O=C(O)CC(O)(CC(=O)O)C(=O)O .
> 150 mg/mL
